B1: ZNF649 (parent)
chain: YHTGKTPFVCPECGQPCSQKSGLI

variants of: B1; assay: protein stability index of a GFP-peptide fusion (GPS, HEK-293T) (PSI 1-6); higher = more stable; settings: c terminus: a fixed tail appended;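 note: lentivirally expressed fusions sorted by FACS into six bins by GFP to DsRed ratio, PSI derived from sequencing read proportions per bin multiplied by bin number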
measurement.label: protein stability index
Just the number, please.

Examples from the recorded data:
{"variant.key": "T3I", "protein stability index": 1.56}
{"variant.key": "G4H", "protein stability index": 1.96}
{"variant.key": "K20L", "protein stability index": 1.37}
{"variant.key": "S18C", "protein stability index": 2.08}

Now take the following variant into account.
Item: G14R | protein stability index: 3.6
